// data source = paper PMC9352680

- Measurement Target: T1, PUF4 RNA-binding domain (Saccharomyces cerevisiae, UniProt P25339 537-888)
- T1 sequence: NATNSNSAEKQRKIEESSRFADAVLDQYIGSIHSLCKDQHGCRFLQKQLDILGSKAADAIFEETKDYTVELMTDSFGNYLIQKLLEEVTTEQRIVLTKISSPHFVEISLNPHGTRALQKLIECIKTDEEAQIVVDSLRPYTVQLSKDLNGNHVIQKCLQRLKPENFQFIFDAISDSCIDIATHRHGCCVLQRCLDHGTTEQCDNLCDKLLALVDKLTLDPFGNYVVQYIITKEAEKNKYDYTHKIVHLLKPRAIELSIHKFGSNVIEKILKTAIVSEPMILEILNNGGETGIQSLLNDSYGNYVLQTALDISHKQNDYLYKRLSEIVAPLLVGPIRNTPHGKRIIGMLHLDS
- Protocol Notes: Mg; RNA-MaP; 20 mM Na-HEPES pH 7.4, 30 mM KOAc, 0.75 mM MgCl2, 0.1% Tween-20, 5% glycerol, 0.1 mg/mL BSA, 2 mM DTT; 25 C; 0.0125-409.6 nM protein
- Experimental Conditions: tags: N-His6-TEV cleaved; C-SNAP kept, Cy3B-labelled; label: tethered on chip by stalled RNA polymerase
Recorded pKd values for a group of binders are listed next.
Interpret pKd as the negative base-10 log of the concentration measured in mol/L.

Some solved entries appear below for comparison.
>  <Binder>
Ib_S2_P4E.1_K4.1_C4.1_H4.1_[A4T]_A4.1_F4.1_[A9G]_T4.1 (ssRNA) RNA: UUUGAUUAAUAUGAUAUCGUUCUUUCUUGUUUAUUGUUCUUUCUCGAUAUCAUAUUAAUCUUU

>  <pKd>
7.20

$$$$
>  <Binder>
Ia_S2_P5E.1_K5.1_C5.1_H5.1_A5.1_[T6C]_F5.1_T5.1 (ssRNA) RNA: UUUGAUUAAUAUGAUAUCGUUCUUUCUUGUAUCAUUAUUCUUUCUCGAUAUCAUAUUAAUCUUU

>  <pKd>
8.76

$$$$
>  <Binder>
ACAAACAAUAUAUAUAAUACAAAC (ssRNA) [Id_ii_S3_P3E.3_K3.2_C3.2_[C-2A]_[T-1A]_H3.2_A3.1_F3.1_T3.2_[T9A]_[A10T]]

>  <pKd>
7.01

$$$$
>  <Binder>
Ie_S2_P3E.2_K3.1_C3.2_H3.1_A3.1_F3.1_[+8TTC]_T3.2 (ssRNA) RNA: UUUGAUUAAUAUGAUAUCGUUCUUUCUCUUGUAUAUAUUCUAUUCUUUCUCGAUAUCAUAUUAAUCUUU

>  <pKd>
8.53

$$$$

Now for a further binder.
Which pKd value is on record for Ic_S2_P3E.1_K3.1_C3.1_H3.1_A3.1_[A6C]_F3.1_T3.1 (ssRNA) RNA: UUUGAUUAAUAUGAUAUCGUUCUUUCUUGUAUCUAUUCUUUCUCGAUAUCAUAUUAAUCUUU ?
8.07
